# TARGET OF ASSAY: CgS (Arabidopsis thaliana, UniProt P55217)
# Sequence (P55217 69-563): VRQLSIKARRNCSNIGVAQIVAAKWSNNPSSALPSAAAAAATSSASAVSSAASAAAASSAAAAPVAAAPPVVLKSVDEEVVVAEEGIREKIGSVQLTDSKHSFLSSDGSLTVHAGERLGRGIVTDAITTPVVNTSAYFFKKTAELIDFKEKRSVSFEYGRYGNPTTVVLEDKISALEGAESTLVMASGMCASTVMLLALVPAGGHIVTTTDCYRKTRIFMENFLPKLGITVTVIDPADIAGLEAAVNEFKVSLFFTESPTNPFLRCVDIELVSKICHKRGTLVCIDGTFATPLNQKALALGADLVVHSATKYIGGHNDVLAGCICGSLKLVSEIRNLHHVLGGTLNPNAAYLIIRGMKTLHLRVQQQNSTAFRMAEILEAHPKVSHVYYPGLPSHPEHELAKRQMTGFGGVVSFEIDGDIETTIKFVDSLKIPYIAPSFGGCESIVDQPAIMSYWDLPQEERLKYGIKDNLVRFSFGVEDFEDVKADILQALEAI
ENDPOINT: pKd
Field pKd (float): negative decimal logarithm of the concentration in molar.

Please give the measured pKd for this compound: `Cc1cc(O)nc(-c2cccc(NC(=O)c3c(O)cccc3F)c2)n1`
4.53
